Where do the numbers come from? From patent US20090130134A1.

List of pIC50 values.
- system name: HLA-DR1 (human)
- test summary: competition ELISA, tracer HA 306-318
pIC50: −log10 of the molar value.
readout type: pIC50

INSERT INTO results (binder, numeric_result) VALUES
  ('ALWNLHGQALFLGIVL (modifications not checked) [A16L]', 7.10),
  ('ASSYAAAQRKLLTPV (modifications not checked) [A15V]', 5.92),
  ('DPHLPTLLLGTSGSGGDDDDPHGPVQLSYYD (modifications not checked) [D31D]', 4.76);
